The reported measurements were obtained from patent US11186566B2.

# assayed.system: F508del-CFTR (Homo sapiens (Human), UniProt P13569, DEL508-508)
# Sequence (P13569 other isoform, or with tags, fused parts or gaps del F508-F508): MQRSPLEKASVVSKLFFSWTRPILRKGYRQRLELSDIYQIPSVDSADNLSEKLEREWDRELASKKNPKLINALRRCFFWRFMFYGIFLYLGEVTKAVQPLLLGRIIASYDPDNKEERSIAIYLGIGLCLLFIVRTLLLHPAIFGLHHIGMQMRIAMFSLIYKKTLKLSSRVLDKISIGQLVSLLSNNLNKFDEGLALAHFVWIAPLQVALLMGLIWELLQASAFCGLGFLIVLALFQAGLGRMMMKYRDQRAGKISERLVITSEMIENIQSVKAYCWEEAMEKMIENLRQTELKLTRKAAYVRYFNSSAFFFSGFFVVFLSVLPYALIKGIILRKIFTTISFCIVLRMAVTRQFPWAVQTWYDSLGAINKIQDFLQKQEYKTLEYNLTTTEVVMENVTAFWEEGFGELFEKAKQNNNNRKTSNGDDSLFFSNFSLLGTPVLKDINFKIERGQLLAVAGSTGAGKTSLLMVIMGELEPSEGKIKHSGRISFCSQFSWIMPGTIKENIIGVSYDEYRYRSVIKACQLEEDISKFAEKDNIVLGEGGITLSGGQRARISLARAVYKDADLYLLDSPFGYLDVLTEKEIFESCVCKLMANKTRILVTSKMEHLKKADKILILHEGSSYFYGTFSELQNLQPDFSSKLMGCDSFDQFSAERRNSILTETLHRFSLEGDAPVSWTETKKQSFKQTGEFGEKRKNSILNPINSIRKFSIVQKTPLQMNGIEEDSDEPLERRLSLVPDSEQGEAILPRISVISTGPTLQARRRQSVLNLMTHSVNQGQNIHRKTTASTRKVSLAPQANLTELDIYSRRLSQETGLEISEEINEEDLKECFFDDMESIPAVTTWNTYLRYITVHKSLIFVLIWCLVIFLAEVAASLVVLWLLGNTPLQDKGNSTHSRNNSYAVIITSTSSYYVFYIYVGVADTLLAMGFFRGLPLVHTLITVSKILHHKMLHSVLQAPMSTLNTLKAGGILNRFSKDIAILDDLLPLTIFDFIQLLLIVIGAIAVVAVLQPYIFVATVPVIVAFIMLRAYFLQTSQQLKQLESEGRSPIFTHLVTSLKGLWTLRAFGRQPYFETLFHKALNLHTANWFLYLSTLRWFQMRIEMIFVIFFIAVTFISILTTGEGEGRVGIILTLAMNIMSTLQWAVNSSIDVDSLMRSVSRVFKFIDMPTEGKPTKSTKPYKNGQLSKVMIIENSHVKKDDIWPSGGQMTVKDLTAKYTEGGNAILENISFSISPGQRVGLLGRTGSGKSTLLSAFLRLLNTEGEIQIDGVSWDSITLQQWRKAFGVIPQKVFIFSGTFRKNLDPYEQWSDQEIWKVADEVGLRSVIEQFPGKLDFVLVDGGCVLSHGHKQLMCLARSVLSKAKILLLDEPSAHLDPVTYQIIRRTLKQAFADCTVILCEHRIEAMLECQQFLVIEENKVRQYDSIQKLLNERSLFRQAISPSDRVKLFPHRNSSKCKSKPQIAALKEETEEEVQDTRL
# assay.text: Membrane potential optical (fluorescent voltage sensing dye, FLIPR III) HTS assay for F508del-CFTR modulators
# Format: cell-based
# condition.details: Table 9; read-out: CFTR dF508 EC50
metric: EC50 (nM)
One number for each entry, in nM.

sample.smiles | EC50 (nM)
COc1ccc(S(=O)(=O)NC(=O)c2ccc(-n3ccc(OCC4(C(F)(F)F)CC4)n3)nc2N2C[C@@H](C)CC2(C)C)c(C)c1 | 80
C[C@@H]1CN(c2nc(-n3ccc(COCC4(C(F)(F)F)CC4)n3)ccc2C(=O)NS(=O)(=O)c2ccccc2)C(C)(C)C1 | 70
C[C@@H]1CN(c2nc(-n3ccc(O[C@H]4C[C@H]5CC[C@@H]4C5)n3)ccc2C(=O)NS(=O)(=O)c2ccccc2)C(C)(C)C1 | 70

Next item in the queue.
Please look at C[C@@H]1CN(c2nc(-n3ccc(OCC4C(C)(C)C4(C)C)n3)ccc2C(=O)NS(=O)(=O)c2ccc(O)cc2)C(C)(C)C1 and tell me its recorded EC50 on F508del-CFTR (Homo sapiens (Human), UniProt P13569, DEL508-508).
80
